Listing of entries alongside the reported percent of parent.
target: codon optimized Vif SLQ144-146AAA MAPPIT prey (pMG2-VifoptSLQ), P12504; experiment: MAPPIT; conditions: chain shown with the change

Binder: Apobec3G-GFP MAPPIT bait (pCEL-Apobec3G-GFP), Q9HC16 W127R (protein) MKPHFRNTVERMYRDTFSYNFYNRPILSRRNTVWLCYEVKTKGPSRPPLDAKIFRGQVYSELKYHPEMRFFHWFSKWRKLHRDQEYEVTWYISWSPCTKCTRDMATFLAEDPKVTLTIFVARLYYFRDPDYQEALRSLCQKRDGPRATMKIMNYDEFQHCWSKFVYSQRELFEPWNNLPKYYILLHIMLGEILRHSMDPPTFTFNFNNEPWVRGRHETYLCYEVERMHNDTWVLLNQRRGFLCNQAPHKHGFLEGRHAELCFLDVIPFWKLDLDQDYRVTCFTSWSPCFSCAQEMAKFISKNKHVSLCIFTARIYDDQGRCQEGLRTLAEAGAKISIMTYSEFKHCWDTFVDHQGCPFQPWDGLDEHSQDLSGRLRAILQNQEN
percent of parent: 16 % of WT
--
Binder: Apobec3G-GFP MAPPIT bait (pCEL-Apobec3G-GFP), Q9HC16 Y59N (protein) MKPHFRNTVERMYRDTFSYNFYNRPILSRRNTVWLCYEVKTKGPSRPPLDAKIFRGQVNSELKYHPEMRFFHWFSKWRKLHRDQEYEVTWYISWSPCTKCTRDMATFLAEDPKVTLTIFVARLYYFWDPDYQEALRSLCQKRDGPRATMKIMNYDEFQHCWSKFVYSQRELFEPWNNLPKYYILLHIMLGEILRHSMDPPTFTFNFNNEPWVRGRHETYLCYEVERMHNDTWVLLNQRRGFLCNQAPHKHGFLEGRHAELCFLDVIPFWKLDLDQDYRVTCFTSWSPCFSCAQEMAKFISKNKHVSLCIFTARIYDDQGRCQEGLRTLAEAGAKISIMTYSEFKHCWDTFVDHQGCPFQPWDGLDEHSQDLSGRLRAILQNQEN
percent of parent: 18 % of WT
